switch fluorescence ratio overview
Tested on: ATP;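 further: ATP exposure 15 min at 22 °C before imaging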
Assay: switch fluorescence ratio, 500 uM ATP over buffer (Cy3 cluster intensity, sum of 5 cycles each) (fold (ratio)); higher = stronger signal-on switching upon ATP binding; sequences stand for … in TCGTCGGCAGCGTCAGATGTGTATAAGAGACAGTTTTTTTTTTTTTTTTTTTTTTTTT…TC
Conditions: aptamer strand: ATP DNA aptamer (quencher-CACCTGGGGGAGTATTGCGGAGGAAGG + anchor), 100 nM annealed; ATP concentration: 500 uM
Output: the number by itself.

GGTCCTGGTT; 0.986
ATAGTGAGTT; 1
ATTGGCCGCC; 0.991
ACCATGTTTG; 1.01

Then this sequence:
For TGGGCGAATC , what is its reported switch fluorescence ratio?
0.998

---

System: ATP;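 further: ATP exposure 15 min at 22 °C before imaging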
Test: switch fluorescence ratio, 500 uM ATP over buffer (Cy3 cluster intensity, sum of 5 cycles each) (fold (ratio)); higher = stronger signal-on switching upon ATP binding; sequences stand for … in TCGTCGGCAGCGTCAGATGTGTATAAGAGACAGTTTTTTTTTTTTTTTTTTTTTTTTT…TC
Details: aptamer strand: ATP DNA aptamer (quencher-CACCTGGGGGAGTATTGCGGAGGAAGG + anchor), 100 nM annealed; ATP concentration: 500 uM
MEASUREMENT_TYPE: switch fluorescence ratio
Output: the number by itself.

These solved cases illustrate the format of a correct answer.
TAAAATCAGT; 0.992
CGTGCAAAAC; 1.82
GGGGTTGTGC; 0.971
TTGGATAAAC; 1.03
TAGTGGAGTG; 1
TCGGGGTTA; 0.979
GCCTGTACTT; 0.988
TTCAGAAGCG; 1.01

For TAGCCGGAGG , what is its reported switch fluorescence ratio?
0.986

For TCAGGGGCAT , what is its reported switch fluorescence ratio?
1.18

For TGGGGAATCT , what is its reported switch fluorescence ratio?
1.02

For AAGGTGTTCG , what is its reported switch fluorescence ratio?
0.957

For GATACTGATC , what is its reported switch fluorescence ratio?
1.13

For ATTGTGCGGC , what is its reported switch fluorescence ratio?
1.01

---

System: ATP;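 further: ATP exposure 15 min at 22 °C before imaging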
Test: switch fluorescence ratio, 500 uM ATP over buffer (Cy3 cluster intensity, sum of 5 cycles each) (fold (ratio)); higher = stronger signal-on switching upon ATP binding; sequences stand for … in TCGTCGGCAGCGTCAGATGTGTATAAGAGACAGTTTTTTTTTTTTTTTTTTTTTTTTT…TC
Settings: aptamer strand: ATP DNA aptamer (quencher-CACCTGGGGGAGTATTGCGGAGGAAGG + anchor), 100 nM annealed; ATP concentration: 500 uM
MEASUREMENT_TYPE: switch fluorescence ratio
Output: the number by itself.

These solved cases illustrate the format of a correct answer.
CGGACTAGGT; 1.02
AGGGGGACGT; 0.998
TAGGCCGTTT; 1

For CACATATTCC , what is its reported switch fluorescence ratio?
1.14

For CCAACGGTCT , what is its reported switch fluorescence ratio?
1.04

For CGGGAGCAGG , what is its reported switch fluorescence ratio?
1.09

For TCCATTAAAA , what is its reported switch fluorescence ratio?
0.976

For CAATATTACA , what is its reported switch fluorescence ratio?
1.05

For GGGTAGCCGG , what is its reported switch fluorescence ratio?
1

For TTCCTTGGTC , what is its reported switch fluorescence ratio?
1.18

For AAATGGGTAC , what is its reported switch fluorescence ratio?
0.994

For TCCCAAACAT , what is its reported switch fluorescence ratio?
1.06

For TGGTTGGACG , what is its reported switch fluorescence ratio?
0.997

For GGTGGGTGTC , what is its reported switch fluorescence ratio?
0.974

For CGGGGGGGC , what is its reported switch fluorescence ratio?
1

For GGGATACTTT , what is its reported switch fluorescence ratio?
1.5

For TGTATGGCTA , what is its reported switch fluorescence ratio?
1.01

For CCTTGCCCTT , what is its reported switch fluorescence ratio?
1.03

For TTTTTTGAT , what is its reported switch fluorescence ratio?
1.01

For GTGGGGTACA , what is its reported switch fluorescence ratio?
0.996

For AGTGATATGA , what is its reported switch fluorescence ratio?
0.988

The measurements presented in this section are drawn from the supplement of paper PMC10126150.
